This listing pairs molecules with measured half-life.
Assay explanation: Stability in human plasma assessed as half life at pH 7.4 measured upto 5 hrs by LC-MS/MS analysis
Type: ADME, cell-free
Parameter: half-life

# Smiles, Obs value
records = [
    ("CCOP(=O)(OCC)SCCCCCCC(=O)Nc1nc(-c2ccc(F)cc2)cs1", "> 5 h"),
    ("CN(C)C(=O)SCCCCCCC(=O)Nc1nc(-c2ccc(F)cc2)cs1", "> 5 h"),
    ("COc1ccc(C(=O)SCCCCCCC(=O)Nc2nc(-c3ccc(F)cc3)cs2)cc1", "> 5 h"),
    ("CC(C)(C)SSCCCCCCC(=O)Nc1nc(-c2ccc(F)cc2)cs1", "> 5 h"),
    ("CC(=O)NCSCCCCCCC(=O)Nc1nc(-c2ccc(F)cc2)cs1", "> 5 h"),
    ("O=C(CCCCCCSSCCCCCCC(=O)Nc1nc(-c2ccc(F)cc2)cs1)Nc1nc(-c2ccc(F)cc2)cs1", "4.12 h"),
    ("CCC(=O)SCCCCCCC(=O)Nc1nc(-c2ccc(F)cc2)cs1", "2.66 h"),
    ("CC(=O)SCCCCCCC(=O)Nc1nc(-c2ccc(F)cc2)cs1", "2.51 h"),
    ("CCCCC(=O)SCCCCCCC(=O)Nc1nc(-c2ccc(F)cc2)cs1", "2.99 h"),
    ("O=C(CCCCCCSC(=O)c1ccc(C(F)(F)F)cc1)Nc1nc(-c2ccc(F)cc2)cs1", "> 5 h"),
    ("CNC(=O)SCCCCCCC(=O)Nc1nc(-c2ccc(F)cc2)cs1", "> 5 h"),
]
